Molecular target: Phosphatidylinositol 4,5-bisphosphate 3-kinase catalytic subunit beta isoform (Homo sapiens)
Sequence (P42338 whole entry, canonical isoform): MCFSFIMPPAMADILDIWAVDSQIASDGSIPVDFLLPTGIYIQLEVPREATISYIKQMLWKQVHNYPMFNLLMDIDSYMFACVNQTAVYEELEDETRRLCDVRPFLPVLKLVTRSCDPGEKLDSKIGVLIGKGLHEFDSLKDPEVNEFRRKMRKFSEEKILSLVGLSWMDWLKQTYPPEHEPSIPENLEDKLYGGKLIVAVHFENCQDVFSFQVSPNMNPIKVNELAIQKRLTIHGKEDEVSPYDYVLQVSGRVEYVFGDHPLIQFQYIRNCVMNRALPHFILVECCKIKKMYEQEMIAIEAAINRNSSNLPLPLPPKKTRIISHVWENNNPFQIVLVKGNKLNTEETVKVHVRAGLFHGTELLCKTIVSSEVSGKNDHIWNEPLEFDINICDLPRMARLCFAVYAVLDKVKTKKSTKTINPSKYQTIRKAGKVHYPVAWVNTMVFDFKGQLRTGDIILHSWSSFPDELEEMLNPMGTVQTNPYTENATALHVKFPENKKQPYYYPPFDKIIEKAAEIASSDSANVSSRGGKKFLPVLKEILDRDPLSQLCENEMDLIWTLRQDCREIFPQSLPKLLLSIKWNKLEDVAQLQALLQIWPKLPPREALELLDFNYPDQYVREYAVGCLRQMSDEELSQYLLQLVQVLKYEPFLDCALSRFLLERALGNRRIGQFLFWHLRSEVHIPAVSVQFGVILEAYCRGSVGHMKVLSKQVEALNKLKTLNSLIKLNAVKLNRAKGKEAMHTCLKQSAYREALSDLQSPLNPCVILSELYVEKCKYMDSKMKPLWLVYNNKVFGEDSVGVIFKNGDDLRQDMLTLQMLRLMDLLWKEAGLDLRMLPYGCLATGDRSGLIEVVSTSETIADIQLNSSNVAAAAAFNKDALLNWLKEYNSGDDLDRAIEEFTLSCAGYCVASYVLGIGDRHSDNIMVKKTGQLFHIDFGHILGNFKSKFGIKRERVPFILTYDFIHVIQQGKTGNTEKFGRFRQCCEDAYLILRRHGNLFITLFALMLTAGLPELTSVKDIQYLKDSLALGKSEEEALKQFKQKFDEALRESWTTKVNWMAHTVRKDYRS
Test: Inhibition of human N-terminal His-tagged PI3Kbeta expressed in insect Sf9 cells using PI(4,5)P2 as substrate after 20 mins by alphascreen assay in presence of 20 uM ATP
pKi: −log10 of the molar value.
Outcome measure: pKi

| Compound string | Reported result |
| --- | --- |
| CC(=O)Nc1cn2nc(-c3cnc(Cl)c(NS(=O)(=O)c4ccc(F)cc4)c3)ccc2n1 | 8.46 |

---

Assay: AUC (0 to 24 hrs) in plasma of nu/nu CD1 mouse xenografted with human U87MG cells at ED50
Format: ADME, organism-based, U-87MG ATCC
Design: time < 24 hr

| Compound string | AUC(0-t) at 24 h, ng·h/mL |
| --- | --- |
| CC(=O)Nc1cn2nc(-c3cnc(Cl)c(NS(=O)(=O)c4ccc(F)cc4)c3)ccc2n1 | 9200 |

Cited source for all entries: ChEMBL document CHEMBL1821651
